Data origin, for the record: ChEMBL document CHEMBL3091351

- experimental protocol: Displacement of [3H]epibatidine from alpha3beta4 nAChR in calf adrenal membranes fraction after 90 mins by liquid scintillation counting analysis
- Type: cell membranes, Bos taurus
readout name: pKi
Scale for pKi: -log10 of concentration given in mol/L; no unit attached.

INSERT INTO assay_data (query_smiles, observed) VALUES
  ('O=C(c1ccco1)N1C[C@@H]2CNC[C@@H](C2)C1', 5.65);

Entry under test: CC(C)(C)OC(=O)N1C[C@@H]2CNC[C@@H](C2)C1 . Its pKi was 5.89

====

- target or system: Neuronal acetylcholine receptor; alpha4/beta2 (Rattus norvegicus, UniProt P09483+P12390)
- Sequence (P09483 whole entry): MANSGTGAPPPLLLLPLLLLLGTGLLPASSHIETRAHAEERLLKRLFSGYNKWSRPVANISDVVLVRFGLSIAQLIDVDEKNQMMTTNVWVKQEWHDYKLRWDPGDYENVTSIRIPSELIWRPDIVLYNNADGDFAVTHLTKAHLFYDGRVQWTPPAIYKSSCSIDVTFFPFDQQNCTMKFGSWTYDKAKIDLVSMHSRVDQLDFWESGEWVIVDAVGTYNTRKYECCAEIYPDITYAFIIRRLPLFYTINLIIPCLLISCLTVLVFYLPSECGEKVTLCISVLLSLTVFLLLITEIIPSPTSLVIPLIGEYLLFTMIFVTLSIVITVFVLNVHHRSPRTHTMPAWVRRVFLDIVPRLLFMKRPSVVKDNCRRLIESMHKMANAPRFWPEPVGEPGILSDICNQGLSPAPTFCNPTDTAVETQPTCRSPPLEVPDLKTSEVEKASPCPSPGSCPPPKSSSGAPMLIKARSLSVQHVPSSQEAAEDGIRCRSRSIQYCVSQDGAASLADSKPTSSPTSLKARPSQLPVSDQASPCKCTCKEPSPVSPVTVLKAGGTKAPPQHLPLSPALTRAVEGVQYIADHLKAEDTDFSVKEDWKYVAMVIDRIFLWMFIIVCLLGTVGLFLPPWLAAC
- Sequence (P12390 whole entry): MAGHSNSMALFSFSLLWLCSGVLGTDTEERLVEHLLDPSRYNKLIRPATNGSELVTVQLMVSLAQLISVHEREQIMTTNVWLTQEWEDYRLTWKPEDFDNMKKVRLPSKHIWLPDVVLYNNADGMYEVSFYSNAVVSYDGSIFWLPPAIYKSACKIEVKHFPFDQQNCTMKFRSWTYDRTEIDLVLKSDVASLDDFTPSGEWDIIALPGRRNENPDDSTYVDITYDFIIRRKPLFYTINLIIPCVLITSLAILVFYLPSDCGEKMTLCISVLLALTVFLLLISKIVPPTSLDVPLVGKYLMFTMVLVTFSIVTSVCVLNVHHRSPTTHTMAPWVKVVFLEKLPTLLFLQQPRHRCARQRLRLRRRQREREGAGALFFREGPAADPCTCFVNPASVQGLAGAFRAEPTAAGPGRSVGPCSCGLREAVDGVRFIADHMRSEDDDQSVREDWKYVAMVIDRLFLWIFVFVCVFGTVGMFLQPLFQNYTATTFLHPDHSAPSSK
- experimental protocol: Displacement of [3H]epibatidine from alpha4beta2 nAChR in Sprague-Dawley rat forebrain P2 fraction after 90 mins by liquid scintillation counting analysis
pKi: −log10 of the molar value.
readout name: pKi

Worked examples follow.
INSERT INTO results (query_smiles, readout_name, observed) VALUES
  ('O=C(c1cccc([N+](=O)[O-])c1)N1C[C@@H]2CNC[C@@H](C2)C1', 'pKi', '< 5.70'),
  ('CCN(CC)C(=O)N1C[C@@H]2CNC[C@@H](C2)C1', 'pKi', '< 5.52'),
  ('O=S(=O)(c1ccc(Br)cc1)N1C[C@@H]2CNC[C@@H](C2)C1', 'pKi', '< 5.30');

Item: O=C(c1ccccc1Cl)N1C[C@@H]2CNC[C@@H](C2)C1 | pKi: < 5.00
